Ref: paper PMC10058761

biological target: human FABP3 (Homo sapiens, UniProt P05413); construct: His-tag (N); TEV cleavage site (N); made in house; host or cells: E. coli BL21(DE3); assay: ITC assay of ligand binding to apo-FABP3; details: KPi pH 7.6, 25 °C, with 0.1% TX
Sequence (P05413 whole entry): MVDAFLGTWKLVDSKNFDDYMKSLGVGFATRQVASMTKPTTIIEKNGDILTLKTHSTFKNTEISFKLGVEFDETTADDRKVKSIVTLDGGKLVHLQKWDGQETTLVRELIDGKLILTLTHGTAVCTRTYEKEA
Each entry below carries its recorded Kd.
State the answer as a number, implicitly in nM.

{"columns": ["compound", "unit-annotation", "Kd"],
 "data": [
  ["CCCCCCCC/C=C\\CCCCCCCC(=O)O [C18:1(n-9)c, oleate]", "nM", 290],
  ["CCCCCCCCCCCCCC(=O)O [C14:0, myristate]", "nM", 300],
  ["CCCCCCCCCCCC(=O)O [C12:0, laurate]", "nM", 570],
  ["CCCCCCCC/C=C/CCCCCCCC(=O)O [C18:1(n-9)t, elaidate]", "nM", 210],
  ["CCCCCCCCCCCCCCCCCC(=O)O [C18:0, stearate]", "nM", 700],
  ["CCCCCCCC(=O)O [C8:0, caprylate]", "nM", 1110]
]}

Look up Kd: CC/C=C\C/C=C\C/C=C\C/C=C\C/C=C\CCCC(=O)O [C20:5(n-3)c, EPA]
1600

Consider the compound shown here: CCCCCCCCCC(=O)O [C10:0, caprate] What is its recorded Kd?
560
